So I've got a bunch of molecules here, and I need their EC40 values.
System: Psoas muscle
experiment: Activation of fast twitch skeletal muscle in rabbit psoas muscle myofibrils by measuring increase in myofibril ATPase activity at 25% calcium concentration
Assay type: functional
condition details: Oryctolagus cuniculus

Lab note: measured EC40 of NC(=O)c1ccn(-c2cnc(NC[C@]3(c4ncccc4F)C[C@H](F)C3)nc2)c1 was 600 nM

The measured EC40 associated with CC(C)(CNc1nc(-c2cccc(C(N)=O)c2)ns1)c1ccc(F)cc1 reads 500 nM

Short answer for NC(=O)c1cnn(-c2ccc(NC[C@]3(c4ncccc4F)C[C@H](F)C3)nn2)c1 : EC40 was 800 nM

EC40 recorded for this molecule, NC(=O)c1cccc(-c2ccc(NCC3(c4ccc(F)cn4)CCC3)nn2)c1 , is 3500 nM

Kindly note the recorded EC40 for CC(Cc1ccc(Cl)cc1)Nc1nc(Cc2ccc(F)cc2)ns1 (stereo unspecified) , which is 22100 nM

EC40 in this record for NC(=O)c1cccc(-c2ccc(NCC3(c4ccccn4)CCC3)nn2)c1 : 500 nM

----------
Test system: Psoas muscle
experiment: Activation of fast twitch skeletal muscle in rabbit psoas muscle myofibrils by measuring increase in myofibril ATPase activity at 25% calcium concentration
Format: functional
condition details: Oryctolagus cuniculus
Answer each item with its documented EC40.
// note: answer is a bare numeric in µM

Measured EC40, NC(=O)c1ccn(-c2ccc(NCC3(c4ncccc4F)CCC3)nn2)c1 : 0.9

Lookup result for CC(C)(CNc1ccc(-c2cccc(C(N)=O)c2)nc1)c1ccc(F)cc1 ; measured EC40: 0.3

Summary for this compound, NC(=O)c1cccc(-c2ccc(NCC3(c4ccc(F)cc4)CCC3)nn2)c1 : EC40 is 0.2

The compound identified as NC(=O)c1ccn(-c2cnc(NCC3(c4ncccc4F)CCC3)nc2)c1 registered its EC40 at 1.3

Entry CN(C)C(=O)c1cccc(-c2nsc(NCC(C)(C)c3ccc(F)cc3)n2)c1 , EC40 reported as 2.9

Record NC(=O)c1cnn(-c2cnc(NC[C@]3(c4ncccc4F)C[C@H](F)C3)nc2)c1 , field EC40: 1.2

Quick note, EC40 for NC(=O)c1cnn(-c2ccc(NCC3(c4ncccc4F)CC(F)(F)C3)nn2)c1 landed at 2.6

Recorded result, Fc1ccc(Cc2nsc(NCCc3ccccc3)n2)cc1 , EC40: 23.3

# compound Fc1ccc(Cc2nsc(NCCc3ccc(Cl)cc3)n2)cc1 ; its EC40 = 4.3

----------
experiment: Metabolic stability in human liver microsomes assessed as intrinsic clearance measured after 90 mins by HPLC/MS/MS analysis
Assay type: ADME, Microsome
condition details: read-out: CLH
quantity kind: CLint scaled

CLint scaled measured on NC(=O)c1cccc(-c2ccc(NCC3(c4ccccn4)CCC3)nn2)c1 = < 7 mL/min/kg

Form field CLint scaled, entry NC(=O)c1cccc(-c2cnc(NC[C@]3(c4ncccc4F)C[C@H](F)C3)nc2)c1 : < 14 mL/min/kg

Short answer for NC(=O)c1cnn(-c2cnc(NC[C@]3(c4ncccc4F)C[C@H](F)C3)nc2)c1 : CLint scaled was < 14 mL/min/kg

In plain terms, NC(=O)c1ccn(-c2cnc(NC[C@]3(c4ncccc4F)C[C@H](F)C3)nc2)c1 [RELDESEMTIV] has a documented CLint scaled of < 14 mL/min/kg

The molecule listed as CNC(=O)c1cccc(-c2cnc(NC[C@]3(c4ncccc4F)C[C@H](F)C3)nc2)c1 shows CLint scaled equal to < 7 mL/min/kg
